Target: Sentrin-specific protease 8 (Homo sapiens)
Experiment: blockers of human SENP8 peptidase activity – biochemical, luminescence, primary screen (AID 2540)
Conditions: purified SENP8, Z-RLRGG-aminoluciferin cleavage, at 10 µM, stronger effect = higher value
The campaign covered roughly 330,000 compounds. About 4,100 (1.2%) were called active. Shown is part of a subset that was picked to be rich in actives.
propertyLabel: inhibition

compound="CCCCC(CC)C(=O)Nc1ccc(Cl)cn1 (stereo not given)" experimentalvalue="7.93% (inactive)"
compound=CC(=O)NCCC(=O)Nc1nc(-c2ccc3c(c2)OCCO3)cs1 experimentalvalue="-10.2% (inactive)"
compound=O=C(Nc1ccc(Cl)cn1)c1ccc2c(c1)OCCO2 experimentalvalue="75.8% (active)"
compound=Cc1ccc(C(=O)NNC(=O)c2ccc3c(c2)OCCO3)cc1 experimentalvalue="5.52% (inactive)"
compound=Cc1nc(NC(=O)c2ccc3c(c2)OCCO3)ccc1Br experimentalvalue="74.8% (active)"
compound=c1ccc2sc(NN=C3CCCC3)nc2c1 experimentalvalue="72% (active)"
compound=CN(C(=O)CSc1nncc2ccccc12)C1CCCCC1 experimentalvalue="-9.8% (inactive)"
compound=CC(=O)Nc1cccc(-c2csc(Nc3cccc(C)n3)n2)c1 experimentalvalue="90.4% (active)"
compound=CC(C)NC(=O)/C(C#N)=C\c1ccc(N(C)C)c(Br)c1 experimentalvalue="-4.03% (inactive)"
compound=COc1ccc(OC)c(-c2csc(-c3cccs3)n2)c1 experimentalvalue="-5.23% (inactive)"
compound=Cn1c(Cn2nnc3ccccc32)nnc1SCC(=O)c1ccccc1F experimentalvalue="0% (inactive)"
compound=O=C(CNCc1ccco1)Nc1cc(S(=O)(=O)N2CCOCC2)ccc1N1CCCC1 experimentalvalue="-6.3% (inactive)"
compound=CN(c1ccc2nc3ccccc3c(=O)n2n1)C1CCCCC1 experimentalvalue="92.6% (active)"
compound=O=C(Nc1ccc(Cl)cn1)c1cnn2cccnc12 experimentalvalue="-0.161% (inactive)"
compound=COc1cccc(NC(=O)COC(=O)/C=C/c2ccco2)c1 experimentalvalue="-1.22% (inactive)"
compound=CN(C(=O)c1cc2c(=O)n3ccccc3nc2s1)C1CCCCC1 experimentalvalue="-2.55% (inactive)"
compound="Cc1cc(C)c(NC(=S)N2CCCC2C(=O)O)c(C)c1 (stereo not given)" experimentalvalue="-2.97% (inactive)"
compound=O=C(CCc1ccccc1)Nc1ccc(NC(=O)C2CC2)nc1 experimentalvalue="-0.592% (inactive)"
compound=O=C(CN1CCN(c2ccc(Cl)cc2)CC1)NCc1cccs1 experimentalvalue="-8.2% (inactive)"
compound="COc1ccc(-c2noc(CNC(=O)C(C)Oc3ccccc3)n2)cc1 (stereo not given)" experimentalvalue="-0.358% (inactive)"
compound=Cc1cnc(NC(=O)C2CCCC2)s1 experimentalvalue="-0.598% (inactive)"
compound="NC(=O)[C@H]1CC2(CC(c3cccc(NC(=O)[C@H]4CCC(=O)N4)c3)=NO2)CN1C(=O)c1ccccc1C(=O)c1ccccc1 (stereo not given in full)" experimentalvalue="2.84% (inactive)"
compound=O=C(Nc1nnc(C2CC2)s1)c1ccccn1 experimentalvalue="20.9% (inactive)"
compound=Brc1ccccc1CN1CCC(Cc2ccccc2)CC1 experimentalvalue="3.24% (inactive)"
compound=COc1ccc(-c2nc(-c3ccccc3)no2)c(OC)c1 experimentalvalue="98% (active)"
compound=CCOCCc1nn2c(=O)cc(CSCC(=O)Nc3cccc(C)c3C)nc2s1 experimentalvalue="-0.564% (inactive)"
compound=Cc1ccccc1Nc1nc(N)nc(COC(=O)CCC(=O)c2ccc(F)cc2)n1 experimentalvalue="-5.5% (inactive)"
compound=CCN(CC)CCn1c2c(c(SCC(=O)Nc3nc4ccccc4s3)nc1=O)CCCC2 experimentalvalue="3.66% (inactive)"
compound=O=c1[nH]c(CCl)nc2cc(-c3ccc(Cl)cc3)sc12 experimentalvalue="90.6% (active)"
compound=Cc1cc(C)cc(-c2nnc(SCC(=O)NC3CC3)o2)c1 experimentalvalue="-2.18% (inactive)"
compound=Cc1cnc(NC(=O)c2ccccn2)s1 experimentalvalue="66.9% (active)"
compound=Fc1ccc(COc2ccc(-c3nnco3)cc2)cc1 experimentalvalue="52.5% (active)"
compound="CCCOC(=O)c1c(NC(=O)c2cnn3c2NC(c2ccccc2)CC3C(F)(F)F)sc2c1CCCC2 (stereo not given)" experimentalvalue="-1.5% (inactive)"
compound=CCCCCc1ccc(-c2ccc(OCC)cc2)nc1 experimentalvalue="-5.58% (inactive)"
compound=N#Cc1c(N)sc2c1CCN(C(=O)OCc1ccccc1)C2 experimentalvalue="2.15% (inactive)"

---

Target: Sentrin-specific protease 8 (Homo sapiens)
Test: blockers of human SENP8 peptidase activity – biochemical, luminescence, primary screen (AID 2540)
Settings: purified SENP8, Z-RLRGG-aminoluciferin cleavage, at 10 µM, stronger effect = higher value
Among all 330,000 compounds or so, about 4,100 (1.2%) were called active. The sample as a whole holds a higher share of actives than the screen did.
In this section we review reported inhibition values for a set of compounds.
propertyLabel: inhibition (%)

compound=Cc1cc(=O)[nH]c(N/N=C/c2ccc3c(c2)OCCO3)n1 experimentalvalue=-1.24
compound=COc1ccc(Br)cc1CN(C)CC(=O)Nc1cc([N+](=O)[O-])ccc1OC experimentalvalue=-6.64
compound="CCN(Cc1ccccc1)C(=O)CN1C(=S)NC(C)(C)CC1C (stereo unspecified)" experimentalvalue=-3.88
compound="COc1ccc(OC)c2sc(NC(=O)C3COc4ccccc4O3)nc12 (stereo unspecified)" experimentalvalue=-14.6
compound=CCCc1ccc(OCCNC(=O)c2ccco2)cc1 experimentalvalue=2.92
compound=O=C(Nc1ccccc1)Nc1ccccc1C(=O)NCc1ccco1 experimentalvalue=65.9
compound=COCCN(C(=O)CSCc1ccc(C)cc1)c1c(N)n(CC(C)C)c(=O)[nH]c1=O experimentalvalue=-1.3
compound=Cc1nc2ccc(C(=O)N/N=C/c3ccc(O)cc3)cc2[nH]1 experimentalvalue=-3.65
compound=O=C(NCCOc1ccccc1F)Nc1ccc(Br)cc1 experimentalvalue=-3.32
compound=Cc1ccc(C(=O)O/N=C(\N)c2ccccn2)cc1Cl experimentalvalue=78
compound="Cc1nc(C(=O)N2CCCC(C(=O)c3ccc(Cl)cc3)C2)cs1 (stereo unspecified)" experimentalvalue=-2.8
compound=COc1ccc(NC(=O)CNc2cc(S(=O)(=O)N3CCOCC3)ccc2N2CCOCC2)c(OC)c1 experimentalvalue=7.93
compound=NNC(=O)c1cnn(-c2ccccc2)c1C(F)(F)F experimentalvalue=-1.96
compound=COc1ccc(C(=O)O/N=C(\N)c2ccccn2)cc1[N+](=O)[O-] experimentalvalue=-12
compound=Cc1ccc(NC(=O)CSc2nnc(CNC(=O)c3ccccc3F)o2)cc1 experimentalvalue=0.136
compound=COc1ccc(N(CC(=O)N/N=C/c2cccc3c2OCCO3)S(=O)(=O)c2ccc(NC(C)=O)cc2)cc1 experimentalvalue=-14.1
compound="O=C(Nc1ncc([N+](=O)[O-])s1)C1COc2ccccc2O1 (stereo unspecified)" experimentalvalue=95.6
compound="O=C(NCc1ccccc1Cl)C1CCCN1S(=O)(=O)c1ccc(F)cc1 (stereo unspecified)" experimentalvalue=-7.31
compound=CC(C)Cn1c(N)c(C(=O)NCc2cccs2)c2nc3ccccc3nc21 experimentalvalue=90
compound=Cc1ccc(C)c(-n2c(SCC(=O)O)nc3sc4c(c3c2=O)CCCC4)c1 experimentalvalue=-9.61
compound=CN(CC(=O)NCc1cccnc1)S(=O)(=O)c1cc(Cl)ccc1Cl experimentalvalue=3.65
